Target: human S1PR5 receptor (Homo sapiens)
Construct: host or cells: CHO-K1
Experiment: Method 1: intracellular Ca2+ release (FLIPR, Calcium 5) in recombinant CHO-K1 cells
Assay type: cell-based
Conditions: agonist potency, determined with method 1 (symbols A-D); read-out: S1P5 EC50 range
Reported EC50 values follow for various molecules
measuredMetric: EC50

>>> df
                                   molecule  measuredmetric       measurement
0    O=C(O)CCCN1CCc2nc(Cc3c(F)cccc3F)ncc2C1            EC50  1000 to 10000 nM
1  O=C(O)CN1CCc2nc(-c3ccc(OCc4cc(F)cc(F)c4)cc3)ncc2C1            EC50    100 to 1000 nM
2  CC(CCN1CCc2nc(-c3ccc(OCc4ccc(Cl)cc4)cc3)c(F)cc2C1)C(=O)O (centres unmarked)            EC50           < 10 nM
3  O=C(O)C1CC(N2CCc3nc(C#Cc4cc(F)cc(F)c4)ncc3C2)C1 (centres unmarked)            EC50  1000 to 10000 nM
4  O=C(O)C1(CN2CCc3nc(-c4ccc(OCc5cccc(Cl)c5)cc4)ncc3C2)CC1            EC50    100 to 1000 nM
5  CC(CN1CCc2nc(-c3ccc(OCc4ccc(Cl)c(Cl)c4)cc3)ncc2C1)C(=O)O (centres unmarked)            EC50           < 10 nM
6  O=C(O)CCN1Cc2ccc(-c3cccc(OCc4cccc(F)c4)c3)nc2C1            EC50  1000 to 10000 nM
7  Cc1cccc(COc2ccc(-c3ncc4c(n3)CCN(CC(C)CC(=O)O)C4)c(F)c2)c1 (centres unmarked)            EC50      10 to 100 nM

---

Reported EC50 values follow for various compounds
Biological target: human S1PR4 receptor (Homo sapiens, UniProt O95977)
Sequence (O95977 whole entry): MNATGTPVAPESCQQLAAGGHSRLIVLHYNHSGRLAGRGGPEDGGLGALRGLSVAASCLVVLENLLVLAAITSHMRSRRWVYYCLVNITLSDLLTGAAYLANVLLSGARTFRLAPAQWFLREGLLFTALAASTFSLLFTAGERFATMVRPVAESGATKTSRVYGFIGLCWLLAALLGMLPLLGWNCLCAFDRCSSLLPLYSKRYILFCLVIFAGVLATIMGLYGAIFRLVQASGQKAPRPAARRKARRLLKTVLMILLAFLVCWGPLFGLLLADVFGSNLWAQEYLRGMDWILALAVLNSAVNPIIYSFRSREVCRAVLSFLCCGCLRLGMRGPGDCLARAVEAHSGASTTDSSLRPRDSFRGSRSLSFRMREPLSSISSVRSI
Experiment: Method 1: intracellular Ca2+ release (FLIPR, Calcium 5) in recombinant CHO-K1 cells
Conditions: (1): determined with method 1; read-out: S1P4 EC50
measuredMetric: EC50

                                   compound  measurement
0  CC(C)(CC(=O)O)CN1CCc2nc(-c3ccc(OCc4ccc(Cl)c(Cl)c4)cc3)ncc2C1 [Compound 217]    > 1000 nM
1  CC(CC(=O)O)CN1CCc2nc(-c3ccc(OCc4cccc(F)c4F)cc3)ncc2C1 (stereo not drawn) [Compound 226]    > 1000 nM
2  O=C(O)C1CC(N2CCc3nc(C#Cc4ccc(OCc5ccccc5)cc4)ccc3C2)C1 (stereo not drawn) [Compound 125]    > 1000 nM
3  CC(CC(=O)O)CN1CCc2nc(-c3ccc(OCc4ccccc4F)cc3)ncc2C1 (stereo not drawn) [Compound 235]    > 1000 nM
4  O=C(O)CCN1CCc2nc(-c3ccc(OCc4ccc5c(c4)CCC5)cc3)ccc2C1 [Compound 162]    > 1000 nM
5  Cc1ccccc1COc1ccc(-c2ncc3c(n2)CCN(C[C@@H](C)CC(=O)O)C3)cc1C [Compound 249]    > 1000 nM

---

Biological target: human S1PR5 receptor (Homo sapiens, UniProt Q9H228)
Construct: host or cells: CHO-K1
Sequence (Q9H228 whole entry): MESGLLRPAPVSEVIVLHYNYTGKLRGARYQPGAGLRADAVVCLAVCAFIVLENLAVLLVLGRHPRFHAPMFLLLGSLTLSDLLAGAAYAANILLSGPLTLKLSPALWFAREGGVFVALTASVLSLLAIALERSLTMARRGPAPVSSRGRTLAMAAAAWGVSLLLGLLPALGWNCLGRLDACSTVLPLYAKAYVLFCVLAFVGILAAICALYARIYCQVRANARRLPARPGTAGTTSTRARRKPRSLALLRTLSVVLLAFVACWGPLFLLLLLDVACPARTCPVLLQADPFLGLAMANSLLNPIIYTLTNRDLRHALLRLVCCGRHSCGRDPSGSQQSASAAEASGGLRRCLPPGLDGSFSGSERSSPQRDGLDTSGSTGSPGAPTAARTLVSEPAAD
Assay: Method 1: intracellular Ca2+ release (FLIPR, Calcium 5) in recombinant CHO-K1 cells
Assay type: cell-based
Conditions: agonist potency, determined with method 1 (symbols A-D); read-out: S1P5 EC50 range
pEC50: −log10 of the molar value. Structures can show the parent of a compound that is named as a salt.
Reported pEC50 values follow for various compounds
measuredMetric: pEC50

>>> print(df.to_string())
                                    compound   measurement
 0  CC(CC(=O)O)N1Cc2ccc(-c3ccc(OCc4c(Cl)cccc4Cl)cc3)nc2C1 (stereo not drawn)  5.00 to 6.00
 1  CC(CC(=O)O)CN1CCc2nc(-c3ccc(/C=C/c4ccc(Cl)cc4)cc3)ncc2C1 (stereo not drawn)  6.00 to 7.00
 2  O=C(O)C1CC(N2CCc3nc(C#Cc4cc(F)cc(F)c4)ccc3C2)C1 (stereo not drawn)  5.00 to 6.00
 3  CCOc1ccc(C#Cc2ncc3c(n2)CCN(C2CC(C(=O)O)C2)C3)cc1 (stereo not drawn)  5.00 to 6.00
 4  O=C(O)C1CC(N2CCc3nc(C#Cc4ccc(F)cc4)ccc3C2)C1 (stereo not drawn)  5.00 to 6.00
 5  CC(CN1CCc2nc(-c3ccc(OCc4cccc(F)c4)cc3)ncc2C1)C(=O)O (stereo not drawn)        > 8.00
 6  CCc1ccccc1COc1ccc(-c2ncc3c(n2)CCN(CC(C)CC(=O)O)C3)c(F)c1 (stereo not drawn)  6.00 to 7.00
 7  O=C(O)CCN1CCc2cc(OCc3c(Cl)cccc3Cl)ncc2C1 [Compound 219, hydrochloride]  6.00 to 7.00
 8  O=C(O)CCN1CCc2nc(-c3ccc(OCc4ccc(OC(F)(F)F)cc4)cc3)ncc2C1        > 8.00
 9  Cc1cc(-c2cc3c(cn2)CN(CCC(=O)O)CC3)ccc1OCc1ccc(Cl)cc1        > 8.00
10  Cc1cc(-c2ncc3c(n2)CCN(CC(C)CC(=O)O)C3)ccc1CCc1ccc(Cl)cc1 (stereo not drawn)  6.00 to 7.00
11  Cc1ccc(COc2ccc(-c3ncc4c(n3)CCN(CC(C)CC(=O)O)C4)cc2C)c(C)c1 (stereo not drawn)  6.00 to 7.00
12  CC(C)(CC(=O)O)CN1CCc2nc(-c3ccc(OCc4cccc(Cl)c4)cc3)ncc2C1  5.00 to 6.00
13  O=C(O)CCN1CCc2nc(-c3ccc(OCc4ccccc4OC(F)F)cc3)ccc2C1        > 8.00
14  CC(CC(=O)O)CN1CCc2nc(-c3ccc(OCc4ccc(F)cc4)cc3F)ncc2C1 (stereo not drawn)  6.00 to 7.00
15  Cc1ccc(C(F)(F)F)cc1COc1ccc(-c2ncc3c(n2)CCN(CCC(=O)O)C3)cc1        > 8.00
16  CC(C)Oc1ccc(-c2ncc3c(n2)CCN(CCCC(=O)O)C3)cc1  5.00 to 6.00
17  CC(CC(=O)O)CN1CCc2nc(-c3ccc(OCc4cccc(F)c4)cc3F)ncc2C1 (stereo not drawn)  6.00 to 7.00
